Recorded melting point for the following compounds
test.readout: melting point

compound: CN(C)c1ccc(/C=C(\C#N)S(=O)(=O)Nc2ccc(F)cc2)cc1 [Example 233]
measured.result: 179 to 180 °C
//
compound: N#C/C(=C\c1ccccc1O)S(=O)(=O)Cc1ccc(Cl)cc1 [Example 121]
measured.result: 171 to 176 °C
//
compound: N#C/C(=C\c1ccc(F)c(Cl)c1)S(=O)(=O)Nc1ccc(F)cc1 [Example 245]
measured.result: 118 to 120 °C
//
compound: Cc1ccc(NS(=O)(=O)/C(C#N)=C/c2c[nH]c3ccccc23)c(C)c1 [Example 253]
measured.result: 192 to 194 °C
//
compound: N#C/C(=C\c1ccc(F)cc1Cl)S(=O)(=O)Cc1ccc(Cl)cc1Cl [Example 95]
measured.result: 142 to 148 °C

----------
test.readout: melting point

molecule: COc1ccc(CS(=O)(=O)/C(C#N)=C/c2ccc(F)cc2)cc1
measured.result: 171 to 173 °C
//
molecule: COc1cc(OC)c(/C=C(\C#N)S(=O)(=O)Cc2ccc(OC)c(F)c2)c(OC)c1
measured.result: 162 to 164 °C
//
molecule: COc1cc(OC)c(/C=C(\C#N)S(=O)(=O)Cc2ccc(Br)cc2)c(OC)c1
measured.result: 158 to 160 °C
//
molecule: COc1ccc(S(=O)(=O)/C(=C/c2ccc(F)cc2)C(N)=O)cc1
measured.result: 154 to 156 °C
//
molecule: CN(C)c1ccc(/C=C(\C#N)S(=O)(=O)Cc2ccc(F)cc2)cc1
measured.result: 135 to 145 °C
//
molecule: COc1cc(OC)c(/C=C(\[N+](=O)[O-])S(=O)(=O)c2ccc(Br)cc2)c(OC)c1
measured.result: 184 to 186 °C
//
molecule: N#C/C(=C\c1ccccc1Cl)S(=O)(=O)Cc1ccc(F)cc1
measured.result: 159 to 163 °C
//
molecule: N#C/C(=C\c1ccc(F)cc1F)S(=O)(=O)Cc1ccccc1
measured.result: 133 to 135 °C
//
molecule: COc1ccc(NS(=O)(=O)/C(C#N)=C/c2c(OC)cc(OC)cc2OC)cc1 [Example 279]
measured.result: 151 to 154 °C

----------
- System: DLD1 (colon carcinoma)
- assay: Effect on tumor cell lines, viable cell count by trypan blue exclusion (Latham et al.): DLD1
- Format: cell-based
- measurement.context: Homo sapiens, DLD-1, DLD1 colon carcinoma cells, viable cell count 96 hours after treatment
test.readout: IC50

mol.smiles: NC(=O)/C(=C\c1ccc(F)cc1)S(=O)(=O)c1ccccc1
test.readout: IC50
measured.result: 1 to 10 µM

mol.smiles: COc1ccc(CS(=O)(=O)/C(=C/c2c(OC)cccc2OC)C(N)=O)cc1
test.readout: IC50
measured.result: > 20 µM

mol.smiles: COc1ccc(S(=O)(=O)/C(=C/c2ccc([N+](=O)[O-])cc2)C(N)=O)cc1
test.readout: IC50
measured.result: > 20 µM

mol.smiles: COc1cccc(OC)c1/C=C(\C(N)=O)S(=O)(=O)c1ccccc1
test.readout: IC50
measured.result: 10 to 20 µM

mol.smiles: COc1ccc(CS(=O)(=O)/C(=C/c2ccc(F)cc2)C(N)=O)cc1
test.readout: IC50
measured.result: > 20 µM

mol.smiles: COc1cccc(OC)c1/C=C(\C(N)=O)S(=O)(=O)Cc1ccc(Cl)cc1
test.readout: IC50
measured.result: 10 to 20 µM

----------
- Tested on: BT20 (breast carcinoma)
- assay: Effect on tumor cell lines, viable cell count by trypan blue exclusion (Latham et al.): BT20
- Format: cell-based
- measurement.context: Homo sapiens, BT-20, BT20 breast carcinoma cells, viable cell count 96 hours after treatment
test.readout: IC50

molecule: COc1cccc(OC)c1/C=C(\C(N)=O)S(=O)(=O)Cc1ccc(Cl)cc1 [Example 175]
measured.result: 10 to 20 µM
--
molecule: COc1ccc(CS(=O)(=O)/C(=C/c2c(OC)cccc2OC)C(N)=O)cc1 [Example 173]
measured.result: > 20 µM
--
molecule: NC(=O)/C(=C\c1ccc(F)cc1)S(=O)(=O)c1ccccc1 [Example 177]
measured.result: 1 to 10 µM
--
molecule: COc1ccc(S(=O)(=O)/C(=C/c2ccc([N+](=O)[O-])cc2)C(N)=O)cc1 [Example 184]
measured.result: > 20 µM

----------
- Tested on: BT20 (breast carcinoma)
- assay: Effect on tumor cell lines, viable cell count by trypan blue exclusion (Latham et al.): BT20
- Type: cell-based
- measurement.context: Homo sapiens, BT-20, BT20 breast carcinoma cells, viable cell count 96 hours after treatment

molecule: COc1ccc(CS(=O)(=O)/C(=C/c2ccc(F)cc2)C(N)=O)cc1 [Example 172]
IC50: > 20 µM
//
molecule: COc1cc(OC)c(/C=C(\C(N)=O)S(=O)(=O)Cc2ccc(Cl)cc2)c(OC)c1 [Example 174]
IC50: > 20 µM
//
molecule: COc1cccc(OC)c1/C=C(\C(N)=O)S(=O)(=O)c1ccccc1 [Example 179]
IC50: 10 to 20 µM
//
molecule: NC(=O)/C(=C\c1ccc(Cl)cc1)S(=O)(=O)Cc1ccc(Cl)cc1Cl [Example 150]
IC50: > 20 µM
//
molecule: NC(=O)/C(=C\c1ccc([N+](=O)[O-])cc1)S(=O)(=O)Cc1ccc(Cl)cc1 [Example 176]
IC50: > 20 µM
//
molecule: COc1ccc(S(=O)(=O)/C(=C/c2c(OC)cccc2OC)C(N)=O)cc1 [Example 183]
IC50: > 20 µM

----------
- Tested on: K562 (chronic myelogenous leukaemia)
- assay: Effect on tumor cell lines, viable cell count by trypan blue exclusion (Latham et al.): K562
- Assay type: cell-based
- measurement.context: K562 chronic myelogenous leukaemia cells, viable cell count 96 hours after treatment

molecule: COc1ccc(NS(=O)(=O)/C(C#N)=C/c2c(OC)cc(OC)cc2OC)cc1 [Example 191]
IC50: 1 to 10 µM
--
molecule: N#C/C(=C\c1ccc(-c2ccccc2)cc1)S(=O)(=O)Nc1ccc(F)cc1
IC50: 10 to 25 µM
--
molecule: CSc1ccc(/C=C(\C#N)S(=O)(=O)Cc2ccc(Cl)cc2Cl)cc1
IC50: 50 to 100 µM

----------
Listed here: items and their measured melting point.
test.readout: melting point

compound: COc1ccc(CS(=O)(=O)/C(C#N)=C/c2c(F)c(F)c(F)c(F)c2F)cc1[N+](=O)[O-] [Example 35]
measured.result: 144 to 146 °C
--
compound: COc1ccc(NS(=O)(=O)/C(C#N)=C/c2c[nH]c3ccccc23)cc1 [Example 278]
measured.result: 201 to 205 °C
--
compound: N#C/C(=C\c1ccccc1Cl)S(=O)(=O)Nc1ccc(Br)cc1 [Example 227]
measured.result: 192 to 194 °C
--
compound: Cc1ccsc1/C=C(\C#N)S(=O)(=O)Nc1ccc(Br)cc1 [Example 224]
measured.result: 176 to 179 °C
--
compound: CCOc1ccc(/C=C(\C#N)S(=O)(=O)Nc2ccc(F)cc2)cc1OC [Example 251]
measured.result: 150 to 152 °C
--
compound: N#C/C(=C\c1ccccc1)S(=O)(=O)Cc1ccc(Cl)cc1Cl [Example 112]
measured.result: 219 to 223 °C
--
compound: COc1ccc(/C=C(\C#N)S(=O)(=O)Nc2ccc(F)cc2)c(F)c1 [Example 241]
measured.result: 142 to 144 °C
--
compound: N#C/C(=C\c1ccccc1OCc1ccccc1)S(=O)(=O)Nc1ccc(Br)cc1 [Example 213]
measured.result: 128 to 130 °C
--
compound: COc1ccc(NS(=O)(=O)/C(C#N)=C/c2c(F)c(F)c(F)c(F)c2F)cc1OS(=O)(=O)c1ccc(C)cc1 [Example 194]
measured.result: 112 to 114 °C
--
compound: Cc1ccoc1/C=C(\C#N)S(=O)(=O)Cc1ccc(Cl)cc1Cl [Example 103]
measured.result: 184 to 189 °C
--
compound: COc1ccc(S(=O)(=O)/C(=C/c2c(OC)cccc2OC)C(N)=O)cc1 [Example 183]
measured.result: 160 to 162 °C
--
compound: N#C/C(=C\c1ccc(O)c([N+](=O)[O-])c1)S(=O)(=O)Nc1ccccc1Oc1ccccc1 [Example 209]
measured.result: 83 to 85 °C
--
compound: CN(C)c1ccc(/C=C(\C#N)S(=O)(=O)Nc2ccccc2Oc2ccccc2)cc1 [Example 206]
measured.result: 158 to 160 °C
--
compound: Cc1ccc(NS(=O)(=O)/C(C#N)=C/c2ccc(Br)cc2)c(C)c1 [Example 262]
measured.result: 164 to 166 °C
--
compound: COc1ccc(/C=C(\C#N)S(=O)(=O)Cc2ccc(Cl)cc2Cl)c(O)c1 [Example 113]
measured.result: 242 to 247 °C
--
compound: Cc1ccc(/C=C(\C#N)S(=O)(=O)Cc2ccc(Br)cc2)s1 [Example 118]
measured.result: 142 to 148 °C
--
compound: COc1cccc(OC)c1/C=C(\C#N)S(=O)(=O)Cc1ccc(Br)cc1 [Example 18]
measured.result: 156 to 158 °C
--
compound: N#C/C(=C\c1ccc(F)cc1Cl)S(=O)(=O)Cc1ccc(Cl)cc1 [Example 41]
measured.result: 124 to 126 °C
